# Test system: MES SA/Dx cells (doxorubicin-resistant uterine sarcoma line, MDR1 upregulated)
# protocol.notes: In vitro cell killing by calicheamicin and linker-drug constructs (CellTiter-Glo, 72 hours)
# Assay type: cell-based
# recorded.conditions: SMALL MOLECULE IVK (10 nM start, 5X dilutions)
readout: pIC50
// pIC50: -log10(molar conc.)

-- ask Query (molecule): CCN(C(C)=O)[C@H]1CO[C@@H](O[C@H]2[C@H](O[C@H]3C#C/C=C\C#C[C@]4(O)CC(=O)C(NC(=O)OC)=C3/C4=C\CSSSC)O[C@H](C)[C@@H](NO[C@H]3C[C@H](O)[C@H](SC(=O)c4c(C)c(I)c(O[C@@H]5O[C@@H](C)[C@H](O)[C@@H](OC)[C@H]5O)c(OC)c4OC)[C@@H](C)O3)[C@@H]2O)C[C@@H]1OC ; field requested: pIC50
-- reply 7.51
